- Target desc: T1, CRBN, Q96SW2;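 note: pooled lentiviral library of zinc finger degron-EGFP fusions in mCherry-positive Jurkat cells, FACS-sorted after compound exposure, with degron abundance counted by next-generation sequencing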
- T1 chain: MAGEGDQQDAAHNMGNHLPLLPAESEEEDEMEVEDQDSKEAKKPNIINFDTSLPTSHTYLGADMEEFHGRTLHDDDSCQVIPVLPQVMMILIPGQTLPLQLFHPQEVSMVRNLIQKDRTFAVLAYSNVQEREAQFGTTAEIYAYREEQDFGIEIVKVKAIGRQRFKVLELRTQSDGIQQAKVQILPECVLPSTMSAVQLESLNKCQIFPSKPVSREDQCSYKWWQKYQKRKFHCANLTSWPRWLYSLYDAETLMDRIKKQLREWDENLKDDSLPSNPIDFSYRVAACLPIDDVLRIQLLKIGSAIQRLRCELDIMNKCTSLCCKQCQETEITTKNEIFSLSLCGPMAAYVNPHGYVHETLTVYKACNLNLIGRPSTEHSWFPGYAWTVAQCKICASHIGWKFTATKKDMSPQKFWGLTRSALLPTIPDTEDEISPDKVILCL
- Assay info: log2 fold change of degron read counts, EGFP-low vs EGFP+ sorted cells (limma voom), compound-induced degradation; higher = more compound-induced degradation of the degron-EGFP fusion; degrons are variants of IKZF1/3 zinc finger 2; compound dose not given here
- Run parameters: Jurkat; 18 h; compound: compound 22 (5-morpholino-thalidomide)
In all, about 8,300 sequences were measured (“log2 fold change of degron read counts, EGFP-low vs EGFP+ sorted cells (limma voom), compound-induced degradation”: median about -1.1, highest 2% from about 3.2 on). For the sample, the highest values were picked, then their nearest neighbours and some sequences at random.
Assign log2 fold change of degron read counts to each entry below.
Numbers only.

Check out these entries, answers already filled in.
FLCPVCGAQFTQKGNLLRHIKL [46F_47L_49P_50V_52G_53A_54Q_55F_67L_, Q9UKT9]    -0.0233
FMCDICGAKFTQKGNLLRHIKL [46F_47M_49D_50I_52G_53A_54K_55F_67L_, Q9UKT9]    -1.21

Now for another entry.
Enquiry: What does the data say about its log2 fold change of degron read counts? Entry: LQCNQCGFPCTQKGNLLRHIKL [46L_47Q_49N_50Q_52G_53F_54P_55C_67L_, Q9UKT9]
Return: -3
